Reference source for all entries: paper PMC6268022

log k reference
assay: HPLC lipophilicity determination (capacity factor k / log k); settings: RP-HPLC, C18, MeOH 70%/H2O 30%, 30 °C
// no unit, no text: just the number

// below: answered compounds
[[record]]
compound = "O=C(NCc1ccccc1)c1cncc(Cl)n1 [Compound 5, N-Benzyl-6-chloropyrazine-2-carboxamide]"
result = 0.2002

[[record]]
compound = "CC(C)(C)c1ncc(C(=O)NCc2cccc(C(F)(F)F)c2)nc1Cl"
result = 1.3638

[[record]]
compound = "CC(C)(C)c1ncc(C(=O)NCc2ccc(Cl)cc2)nc1Cl"
result = 1.3511


Consider the compound shown here: COc1ccc(CNC(=O)c2cnc(C(C)(C)C)c(Cl)n2)cc1 What is its recorded log k? 0.8071

Please report the recorded log k for O=C(NCc1cccc(C(F)(F)F)c1)c1cnc(Cl)cn1 . 0.4384

Reported log k for COc1ccc(CNC(=O)c2cnc(Cl)cn2)cc1 : what is it? 0.1655

# query: log k of entry O=C(NCc1ccc(Cl)cc1)c1cnc(Cl)cn1 0.4150

Look at this compound and give its reported log k. O=C(NCc1cccc(C(F)(F)F)c1)c1cncc(Cl)n1 0.4507

Given the entry COc1ccc(CNC(=O)c2cncc(Cl)n2)cc1 , report its measured log k. 0.1838

Which log k reading was recorded for the compound O=C(NCc1ccc(Cl)cc1)c1cncc(Cl)n1 ? 0.4335

Query: log k; subject: O=C(NCc1ccccc1)c1cnc(Cl)cn1 [Compound 1, N-Benzyl-5-chloropyrazine-2-carboxamide] 0.1862

# input compound: CC(C)(C)c1ncc(C(=O)NCc2ccccc2)nc1Cl ; wanted: its log k 1.1215

###

Listed here are molecules together with their documented MIC.
test system: M. avium CNCTC My 80/72; assay: In vitro antimycobacterial microdilution panel method; format: cell-based; conditions: Mycobacterium avium, 336 h; CNCTC My 80/72, pH 6.0, 14 days
Write the number in µg/mL without appending the unit.

[[record]]
molecule = "CC(C)(C)c1ncc(C(=O)NCc2ccc(Cl)cc2)nc1Cl [Compound 11]"
result = 50

[[record]]
molecule = "CC(C)(C)c1ncc(C(=O)NCc2ccccc2)nc1Cl [Compound 9]"
result = 25

[[record]]
molecule = "COc1ccc(CNC(=O)c2cnc(C(C)(C)C)c(Cl)n2)cc1 [Compound 12]"
result = 12.5

[[record]]
molecule = "O=C(NCc1ccc(Cl)cc1)c1cnc(Cl)cn1 [Compound 3]"
result = 100

[[record]]
molecule = "O=C(NCc1ccccc1)c1cnc(Cl)cn1 [Compound 1, N-Benzyl-5-chloropyrazine-2-carboxamide]"
result = 100


Give its MIC value. Item: O=C(NCc1cccc(C(F)(F)F)c1)c1cncc(Cl)n1 [Compound 6] 25

Can you look up the measured MIC of O=C(NCc1ccccc1)c1cncc(Cl)n1 [Compound 5, N-Benzyl-6-chloropyrazine-2-carboxamide] for me? 100

Item under review: CC(C)(C)c1ncc(C(=O)NCc2cccc(C(F)(F)F)c2)nc1Cl [Compound 10] . Reported MIC? 25

Fill blank: measured MIC of the molecule COc1ccc(CNC(=O)c2cncc(Cl)n2)cc1 [Compound 8] is ____. 100

What value of MIC has been recorded for this entry: O=C(NCc1cccc(C(F)(F)F)c1)c1cnc(Cl)cn1 [Compound 2] 25

Name the recorded MIC for COc1ccc(CNC(=O)c2cnc(Cl)cn2)cc1 [Compound 4] . 100

Param item = O=C(NCc1ccc(Cl)cc1)c1cncc(Cl)n1 [Compound 7] ; retrieve measured MIC. 100
